- Run Description: qHTS drug screen for cell cycle checkpoint inhibitors in PARPi-resistant BRCA-mutant ovarian cancer cell lines. (AID 1963452)
- Assay Context: PEO1/OlaR viability, CellTiter-Glo luminescence, 96 h; measured here: PEO4 Z-AUC; stronger effect = lower value
The label y is reserved for Z-AUC strictly under -0.4; n covers values equal to or above it.

Examples from the recorded data:
{"Chemical Structure": "COc1ccc(C(=O)N2CCN(c3ccc4c(c3)CCC(=O)N4)CC2)cc1OC", "Qualitative Label": "n"}
{"Chemical Structure": "CCc1cc2c(c(OCC(F)(F)F)c(C(=O)NC3CCN(C(=O)CO)CC3)n2C)c(=O)n1CC(=O)c1ccccc1", "Qualitative Label": "n"}

Answer whether the molecule Cc1nc(NC(=O)N2CCC[C@H]2C(N)=O)sc1-c1csc(C(C)(C)C)n1 has Z-AUC strictly less than -0.4 n

Answer whether the molecule CN1CCN(C(=O)[C@H]2[C@@H](C(=O)O)[C@H]3CC[C@@H]2O3)CC1 has Z-AUC strictly less than -0.4 n

Answer whether the molecule C[C@H]1CN(C2COC2)CCN1c1ccc(Nc2cc(-c3ccnc(N4CCn5c(cc6c5CC(C)(C)C6)C4=O)c3CO)cn(C)c2=O)nc1 has Z-AUC strictly less than -0.4 n

Answer whether the molecule COc1cc2c3c(n(CCCN4CCOCC4)c(=O)c2cc1OC)-c1cc2c(cc1C3=O)OCO2 has Z-AUC strictly less than -0.4 y

Measured values drawn from PubChem BioAssay (NCATS) for this set.
